Could you please report measured Ratio IC50 for the items listed next?
Organism: Macaca mulatta
Experiment: Selectivity for rhesus monkey DAT over rhesus monkey SERT
Reply with the value as a number alone.

Request: For COC(=O)[C@@H]1C2CCC(C[C@@H]1c1ccc(Cl)c(Cl)c1)[S+]2[O-] (stereo partly specified) , what is its reported Ratio IC50?
Result: 23

Request: Requested read-out: Ratio IC50. Entry: COC(=O)[C@@H]1C2CCC(C[C@@H]1c1ccc(F)cc1)S2 (stereo partly specified)
Result: 13

Request: # get_value(readout='Ratio IC50', item= COC(=O)C1=C(c2ccc(Cl)c(Cl)c2)CC2CCC1O2 (stereo unspecified) )
Result: 600

Measured values drawn from ChEMBL document CHEMBL1144528 for this set.
